For each entry below, report its log10(Ki) value.
target desc: Cytochrome P450 2C9 (Homo sapiens)
protocol: Binding affinity was measured on Cytochrome P450 2C9
Format: ADME
Reminder: these figures are log10 of reported Ki, in µM before transformation.

compound	quantity kind	result value
C#Cc1ccc2c(=O)c(C(C(C)=O)c3ccccc3)c(O)oc2c1 (stereo not drawn)	log10(Ki)	0.04
C[C@@H](O)C[C@H](c1ccccc1)c1c(O)oc2ccccc2c1=O	log10(Ki)	0.48
C[C@H](O)C[C@@H](c1ccccc1)c1c(O)oc2ccccc2c1=O	log10(Ki)	0.48
C#Cc1ccc2oc(O)c(C(C(C)=O)c3ccccc3)c(=O)c2c1 (stereo not drawn)	log10(Ki)	0.18

Please supply log10(Ki) for each of the following items, keeping them in order.
1. COc1c([C@H](CC(C)=O)c2ccccc2)c(=O)oc2ccccc12 (stereo in doubt; 15)
2. CC[C@H](c1ccccc1)c1c(OC)c2ccccc2oc1=O
3. [N-]=[N+]=Nc1ccc(S(=O)(=O)Nc2ccnn2-c2ccccc2)cc1

(A)
1: 0.38; 2: 1.11; 3: -0.40

---

target desc: Cytochrome P450 2C9 (Homo sapiens)
protocol: Binding affinity for human Cytochrome P450 2C9
Assay type: ADME
quantity kind: pKi
One number for each entry, as −log10 of the molar value.

Item: COc1oc2ccccc2c(=O)c1[C@H](CC(C)=O)c1ccccc1 | pKi: 4.54

---

target desc: Cytochrome P450 2C9 (Homo sapiens, UniProt P11712)
Sequence (P11712 whole entry): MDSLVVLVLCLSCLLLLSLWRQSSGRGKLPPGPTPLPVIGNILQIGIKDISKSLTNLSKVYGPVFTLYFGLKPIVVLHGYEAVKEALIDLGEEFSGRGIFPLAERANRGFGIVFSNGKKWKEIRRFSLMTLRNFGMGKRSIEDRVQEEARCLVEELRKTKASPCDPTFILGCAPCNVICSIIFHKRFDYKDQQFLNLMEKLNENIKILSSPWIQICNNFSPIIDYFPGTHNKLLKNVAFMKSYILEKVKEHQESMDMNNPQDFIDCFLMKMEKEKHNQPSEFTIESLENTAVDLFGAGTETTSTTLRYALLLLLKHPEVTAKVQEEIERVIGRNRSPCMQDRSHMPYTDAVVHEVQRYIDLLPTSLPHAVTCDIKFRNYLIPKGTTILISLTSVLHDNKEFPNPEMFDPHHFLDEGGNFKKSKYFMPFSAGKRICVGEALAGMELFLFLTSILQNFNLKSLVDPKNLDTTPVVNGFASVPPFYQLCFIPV
protocol: Binding affinity measured on human cytochrome P450 2C9 (CYP2C9) enzyme
Answer each item with its documented Ki.
Answers are plain numbers, in µM.

molecule	result value
CC(C(=O)O)c1ccc(C(=O)c2cccs2)cc1 (stereo not drawn) [SUPROFEN]	45
C#Cc1ccc(C2(c3ccccc3)NC(=O)NC2=O)cc1 (stereo not drawn)	18
COc1oc2ccccc2c(=O)c1[C@@H](CC(C)=O)c1ccccc1	21
O=C(O)Cc1ccccc1Nc1cc(Cl)ccc1Cl	2
O=S(=O)(Nc1ccnn1-c1ccccc1)c1ccc(O)cc1	6

For each of the molecules below, state Ki.
1. C#Cc1ccc(S(=O)(=O)NC(=O)NCc2ccccc2)cc1
2. CC(=O)c1ccc(S(=O)(=O)Nc2ccnn2-c2ccccc2)cc1
3. O=S(=O)(Nc1ccnn1-c1ccccc1)c1ccccc1
4. C#Cc1ccc(S(=O)(=O)NC(=O)NCCCC)cc1
5. C#Cc1ccc(S(=O)(=O)NC(=O)Nc2ccccc2)cc1
6. C#Cc1ccc(S(=O)(=O)NC(=O)NCC(C)C)cc1

(A)
1. 25
2. 2.4
3. 2
4. 18
5. 7
6. 48

Report Ki for each item below.
1. Cc1ccc(C)c(OCC(C)(C)C(=O)O)c1
2. C#Cc1ccc(S(=O)(=O)Nc2cc(C)on2)cc1

(A)
[15, 3]

---

Give measured Ki for each item. Keep answers brief.
target desc: Cytochrome P450 2C9 (Homo sapiens, UniProt P11712)
protocol: Binding affinity was measured on Cytochrome P450 2C9
Assay type: ADME
One number for each entry, in µM.

For orientation, consider the following solved cases.
compound	endpoint unit	result value
CC[C@H](c1ccccc1)c1c(OC)oc2ccccc2c1=O	µM	14
CC1(O)C[C@H](c2ccccc2)c2c(c3ccccc3oc2=O)O1 (stereo partly specified)	µM	7
CO[C@@]1(C)C[C@H](c2ccccc2)c2c(c3ccccc3oc2=O)O1	µM	1.5

Hi there! I need Ki for each item below, if you can.
1. CC1(O)C[C@@H](c2ccccc2)c2c(c3ccccc3oc2=O)O1 (stereo partly specified)
2. CC[C@@H](c1ccccc1)c1c(OC)oc2ccccc2c1=O
3. [N-]=[N+]=Nc1ccc2oc(O)c(Cc3c(O)oc4ccc(N=[N+]=[N-])cc4c3=O)c(=O)c2c1

(A)
1: 25; 2: 0.1; 3: 3
